tested on: HepG2 cells; experiment: HepG2 cytotoxicity assay; details: HepG2 cytotoxicity unified across screens; >25 set to 25.00
metric: Unified cytotox (µM)
Numbers only, in µM.

| compound | value unit | Unified cytotox |
| --- | --- | --- |
| Cl.NCCCOc1cnc(-c2ccccc2)c2nc(-c3nonc3N)n(CCc3ccccc3)c12 | µM | 5.61 |
| O=C(O)C(F)(F)F.c1cc(CNCCN2CCNCC2)cc(-c2cccc(-c3nc4ccccc4[nH]3)c2)c1 | µM | 19.30 |
| CC(C)(C)OC(=O)NCc1ccc(Nc2nnc(-c3ccc(OCC(=O)NCc4ccc(C(C)(C)C)cc4)c([N+](=O)[O-])c3)o2)cc1 | µM | 3.15 |

Each of the following entries comes with a recorded value; kindly state Unified cytotox for each.
1. Fc1ccc(N(c2nc(-c3cc(F)cc(C(F)(F)F)c3)cs2)C2CCNCC2)cc1.O=C(O)C(F)(F)F
2. COc1ccc2nc3cc(Cl)ccc3c(NCCN3CCN(C)CC3)c2c1
3. Br.c1cc(C2=NC3CCCCC3N2)ccc1OCCCCCOc1ccc(C2=NC3CCCCC3N2)cc1 (stereo not shown)
4. CCc1c(CCNCCCCCCNCCc2ccc(OC)c(OC)c2C)ccc(OC)c1OC.Cl

6.60
19.33
3.74
7.75
